molecular target: MCL-1 (Homo sapiens (Human), UniProt Q07820, K194A/K197A/R201A); assay: Protein-protein interaction assay MCL-1/Noxa BH3 peptide (MCL-1 assay, TR-FRET); format: binding; conditions: MCL-1 Assay IC50 (median)
Sequence (Q07820 whole entry, looked up, stated change not applied): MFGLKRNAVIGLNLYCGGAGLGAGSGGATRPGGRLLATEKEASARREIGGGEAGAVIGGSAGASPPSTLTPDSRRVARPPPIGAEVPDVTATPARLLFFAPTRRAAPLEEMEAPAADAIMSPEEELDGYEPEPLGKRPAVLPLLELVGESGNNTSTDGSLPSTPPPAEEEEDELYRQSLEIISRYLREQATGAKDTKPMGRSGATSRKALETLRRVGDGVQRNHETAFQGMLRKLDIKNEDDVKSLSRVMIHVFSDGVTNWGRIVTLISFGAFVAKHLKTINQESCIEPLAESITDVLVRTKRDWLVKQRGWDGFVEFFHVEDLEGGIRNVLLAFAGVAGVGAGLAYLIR
measured_metric: pIC50
Scale: pIC50 equals -log10([C]), with [C] in mol/L.

CCc1c2c(nn1C)C(CCO)OCCCCn1c(C(=O)O)c(CCCOc3cccc4cc(F)ccc34)c3ccc(Cl)c-2c31 (racemic) [Example 44] | 9.41

Req: Query: pIC50; subject: Cc1c2c(nn1C)C(CCN1CCOCC1)OCCCCn1c(C(=O)O)c(CCCOc3cccc4ccccc34)c3cccc-2c31 (racemic) [Example 4]
Resp: 8.96

Req: Now try CCc1c2c(nn1C)C(C(F)(F)F)OCCCCn1c(C(=O)O)c(CCCOc3cccc4ccccc34)c3ccc(Cl)c-2c31 (racemic) [Example 27] .
Resp: 8.42

Req: Same read-out for CCc1c2c(nn1C)C(CCCN1CCOCC1)OCCCCn1c(C(=O)O)c(CCCOc3cccc4cc(F)ccc34)c3ccc(Cl)c-2c31 (single isomer, unassigned; enantiomer 1) [Example 66] ?
Resp: 9.27

Req: Now the compound CCc1c2c(nn1C)C(CCO)OCCCCn1c(C(=O)O)c(CCCOc3cccc4cc(F)ccc34)c3ccc(Cl)c-2c31 (single isomer, unassigned; enantiomer 2) [Example 46]
Resp: 7.44

Req: Moving on to CCc1c2c(nn1C)C1CCCN1CCCCn1c(C(=O)O)c(CCCOc3cccc4cc(F)ccc34)c3ccc(Cl)c-2c31 (racemic) [Example 104]
Resp: 9.06

Req: Do the same for CCc1c2c(nn1C)C(CCN1CCOCC1)OCCCCn1c(C(=O)O)c(CCCOc3cccc4cc(F)ccc34)c3ccc(Cl)c-2c31 (racemic) [Example 22] please
Resp: 8.82

Req: Also need CCc1c2c(nn1C)C(CCN(C)OC)OCCCCn1c(C(=O)O)c(CCCOc3cccc4cc(F)ccc34)c3ccc(Cl)c-2c31 (racemic) [Example 80] , thanks.
Resp: 8.46

Req: Let us now turn to Cc1c2c(nn1C)C(CCN1CCOCC1)OCCCCn1c(C(=O)O)c(CCCOc3cccc4ccccc34)c3ccc(F)c-2c31 (racemic) [Example 7]
Resp: 9.18

Req: How about Cc1c2c(nn1C)C(CCN1CCOCC1)OCCCCn1c(C(=O)O)c(CCCOc3cccc4cc(F)ccc34)c3ccc(F)c-2c31 (racemic) [Example 19] ?
Resp: 8.80

Req: Similarly, CCc1c2c(nn1C)C(CCN1CCOCC1)OCCCCn1c(C(=O)O)c(CCCOc3cccc4ccccc34)c3ccc(F)c-2c31 (racemic) [Example 10] ?
Resp: 9.14

Req: Consider next the compound CCc1c2c(nn1C)C(CCN1CCOCC1)OCCCCn1c(C(=O)O)c(CCCOc3cccc4cc(F)ccc34)c3ccc(F)c-2c31 (single isomer, unassigned; enantiomer 2) [Example 51] in the same way.
Resp: 7.22

----------
Parameter IC50: see the listing below.
test system: SUDHL5 cells; experiment: Induction of cytotoxicity in SUDHL5 cells (Assay 6); type: cell-based; details: Homo sapiens, SU-DHL-5, 5 h, 5 h, CellTiter-Glo; read-out: Cytotox SUDHL5 IC50 (median)
Quick note: give the figure in nM, leave out the unit.

CCc1c2c(nn1C)C(CCN1CCOCC1)OCCCCn1c(C(=O)O)c(CCCOc3cccc4ccccc34)c3ccc(F)c-2c31 (racemic) [Example 10] | 140
CCc1c2c(nn1C)C(CCN(C)OC)OCCCCn1c(C(=O)O)c(CCCOc3cccc4cc(F)ccc34)c3ccc(Cl)c-2c31 (racemic) [Example 80] | 150

Kindly review the next molecule as well.
Req: Lab note: need IC50 for Cc1c2c(nn1C)C(CCN1CCOCC1)OCCCCn1c(C(=O)O)c(CCCOc3cccc4cc(F)ccc34)c3ccc(F)c-2c31 (single isomer, unassigned; enantiomer 1) [Example 20] on SUDHL5 cells, anyone have it?
Resp: 33

----------
Tested on: SUDHL10 cells
Test: Induction of cytotoxicity in SUDHL10 cells (Assay 6)
Assay type: cell-based
Details: Homo sapiens, SU-DHL10, 5 h, 5 h, CellTiter-Glo; read-out: Cytotox SUDHL10 IC50 (median)
Procedure: Assay 6 Induction of Cytotoxicity Upon Treatment of Cells with Selected Compounds In principle, compounds that induce apoptosis will concomitantly induce cell cytotoxicity. Therefore, cytotoxicity assays were run in parallel in SUDHL5 and SUDHL10 cells. As a control, medium without cells was also added to the plate. Cells were incubated in a humidified incubator at 37° C. overnight. […] Finally, luminescence was read at 0.1 ms, with a gain of 3000 using the PHERAstar FS microplate reader (BMG Labtech).
# maps each entry to its IC50
Record the value in nM, omitting the unit from your answer.

Worked cases, IC50 given:
CCc1c2c(nn1C)C(C(F)(F)F)OCCCCn1c(C(=O)O)c(CCCOc3cccc4ccccc34)c3ccc(Cl)c-2c31 (racemic) [Example 27] | 9600
CCc1c2c(nn1C)C1CCCCN1CCCCn1c(C(=O)O)c(CCCOc3cccc4ccccc34)c3ccc(Cl)c-2c31 (racemic) [Example 102] | 950
Cc1c2c(nn1C)C(C1CC1)OCCCCn1c(C(=O)O)c(CCCOc3cccc4ccccc34)c3ccc(Cl)c-2c31 (racemic) [Example 28] | 8400
Cc1c2c(nn1C)C(CCN1CCOCC1)OCCCCn1c(C(=O)O)c(CCCOc3cccc4cc(F)ccc34)c3ccc(F)c-2c31 (single isomer, unassigned; enantiomer 1) [Example 20] | 41
Cc1c2c(nn1C)C(CCN1CCOCC1)OCCCCn1c(C(=O)O)c(CCCOc3cccc4cc(F)ccc34)c3ccc(Cl)c-2c31 (single isomer, unassigned; enantiomer 1) [Example 17] | 9.3

Req: Please look up its IC50: CCc1c2c(nn1C)C(CCN1CCOCC1)OCCCCn1c(C(=O)O)c(CCCOc3cccc4cc(F)ccc34)c3ccc(Cl)c-2c31 (racemic) [Example 22]
Resp: 28

Req: // repeat for CCc1c2c(nn1C)C(CCN1CCC(F)(F)C1)OCCCCn1c(C(=O)O)c(CCCOc3cccc4cc(F)ccc34)c3ccc(Cl)c-2c31 (single isomer, unassigned; enantiomer 1) [Example 58] and report
Resp: 43

Req: How about this compound: Cc1c2c(nn1C)C(CCN1CCOCC1)OCCCCn1c(C(=O)O)c(CCCOc3cccc4cc(F)ccc34)c3ccc(Cl)c-2c31 (single isomer, unassigned; enantiomer 2) [Example 18]
Resp: 770

Req: Now consider CCc1c2c(nn1C)C1CCCCN1CCCCn1c(C(=O)O)c(CCCOc3cccc4ccccc34)c3ccc(Cl)c-2c31 (racemic) [Example 103] and answer again.
Resp: 1700

----------
// pIC50 lookup, one value per entry
test system: SUDHL5 cells; assay: Antiproliferation assay SUDHL5 (Assay 7); assay type: cell-based; details: Homo sapiens, SU-DHL-5, 72 h, 72 h, CellTiter-Glo; read-out: Antiproli SUDHL5 IC50 (median)
The meaning of pIC50 here: minus log10 of the concentration in molar units.

These recorded examples may help you get a feel for the data.
Cc1c2c(nn1C)C(CCN1CCOCC1)OCCCCn1c(C(=O)O)c(CCCOc3cccc4cc(F)ccc34)c3ccc(Cl)c-2c31 (racemic) | 7.72
CCc1c2c(nn1C)C(CCN1CCOCC1)OCCCCn1c(C(=O)O)c(CCCOc3cccc4cc(F)ccc34)c3ccc(F)c-2c31 (racemic) | 7.38

Consider the additional compound presented here.
Req: Fill blank: measured pIC50 of the compound Cc1c2c(nn1C)C(C)OCCCCn1c(C(=O)O)c(CCCOc3cccc4ccccc34)c3cccc-2c31 (racemic) is ____.
Resp: 5.82

----------
Molecular target: MCL-1 (Homo sapiens (Human), UniProt Q07820, K194A/K197A/R201A)
Assay: Protein-protein interaction assay MCL-1/Noxa BH3 peptide (MCL-1 assay, TR-FRET)
Assay type: binding
Conditions: read-out: MCL-1 Assay IC50 (median)
Experimental: The dose-dependent inhibition by the compounds described in this invention of the interaction between MCL-1 and the BH3 domain of Noxa (both human) was determined using a steady state binding competition assay with time-resolved fluorescence energy transfer (TR-FRET) readout. […]
measured_metric: IC50
Hey, just the number and the unit after it is fine.

Previously resolved entries follow.
CCc1c2c(nn1C)C1CCCN1CCCCn1c(C(=O)O)c(CCCOc3cccc4cc(F)ccc34)c3ccc(Cl)c-2c31 (single isomer, unassigned; (+)) [Example 105] | 1.1 nM
CCc1c2c(nn1C)C1CCCN1CCCCn1c(C(=O)O)c(CCCOc3cccc4cc(F)ccc34)c3ccc(Cl)c-2c31 (single isomer, unassigned; (-)) [Example 106] | 17 nM
CCc1c2c(nn1C)C(CCC1CCOCC1)N(C)CCCCn1c(C(=O)O)c(CCCOc3cccc4cc(F)ccc34)c3ccc(Cl)c-2c31 (stereo not shown) | 1.8 nM

Then there is this molecule:
Req: Consider the molecule shown here: "CCc1c2c(nn1C)[C@@H](CCN1CCOCC1)OCCCCn1c(C(=O)O)c(CCCOc3cccc4cc(F)ccc34)c3ccc(Cl)c-2c31" What is its recorded IC50?
Resp: 0.37 nM

Measured values drawn from patent US11440923B2 for this set.
